Every entry's value here was drawn from the nanobody polyreactivity screen of Harvey et al. (2022).

# method_summary: yeast display, Sf9 membrane polyspecificity reagent, FACS + sequencing; frameworks hold sequencing errors

item_sequence	polyreactivity (PSR sort gate)
QVQLVESGGGLDQAGGSLRLSCAASGSIFDSNAMGWYRQAPGKERELVAAISLSGGSTYYADSVKGRFTISRDNAKNTVYLQMNSLKPEDTAVYYCAKDGWYEYYWGQGTQVTVSS	low polyreactivity
QVQLVESGGGLVQAGGSLRLSCAASGRIFGSYAMGWYRQAPGKERELVAGIRSVGSTYYADSVKGRFTISRDNAKNTVYFQMNSLKPEDTAVYYCAAEYFNQNTRQGYDSWGQGSQVTVSS	low polyreactivity
QVQLVESGGGLGQAGGSLRLSCAASGFIFVWYAMGWYRQAPGKERELVAAINWSGGHTYYADSVKGRFTISRDNSKNTVYLQMNSLKPEDTAVYYWNADSLWYWFYPYNYWGQGTQVTVSS	low polyreactivity
QVQLVESGGGLVQAGGSLRLSCAASGNIFGFYTMGWNRQAPGKERELVAAIRSRGGSTNYADSVKGRFTISRDTAKNTVYLQMNSLKPEDTAVYYCNKDGTWLARAVTYADFDYWGQGTQVTVSS	low polyreactivity
QVQLVESGGGLVQAGGSLRLSCAASGRIFAPNAMGWYRQAPGKEREFVASIRWNGGSTYYADSVKGRFTISRDNAKNTVYLQMNSLKPADTAVYYCAARGWGYRRNYVYAWYDYWGQGTQVTVSS	high polyreactivity
QVQLVESGGGLVQAGGSLRLSCAASGRTFLNYAMGWYRQAPGKEREFVAAITWRVGTTYYADSVKGRFTISRDNAKNTVYLQMNSLKPEDTAVYYCAARRSVGGYGYWGQGTQVTVSS	high polyreactivity
QVQLVESGGGLVQAGGSLRLSCAASGYIFYAYAMGWYRQAPGKERELVAAISSGGGRTYYADSVKGRFTISRDNAKNTVDLQRNSLKPEDTAVYYCAARRRDRGEYYYWGQGTQVTVSS	high polyreactivity
QVQLVESGGGLVQAGGSLRLSCAASGNIFKYYTMRWYRQAPGKERELVAAITSGGRTNYADSVKGRFTISRDNAKNTVYLQMNSLKPEDTAVYYCAAYDVIYSQGFDYWGQGTQVTVSS	low polyreactivity
QVQLVESGGGLVQAGGSLRLSCAASGSIFSTNAMGWYRQAPGKERELVATISGADGTNYADSVKGRFTISRDNAKNTVYLQMNSLKPEDTAVYYSNAFPWPVYRGYYWGQGTQVTVSS	low polyreactivity
QVQRVESGGRLVQAGGSLRLSCAACGSTFPGNAMGWYRQAPGKERELVAAISSSGGSTDYADSVKGRFTCSRDNAKNTVYLQLNRLKPEDTAVYSCATKYRFCTYRDIAYPYDYWGQGPQVTVSS	low polyreactivity
QVQLVESGGGLVQAGGSLRLSCAASGSIFNYNAMGWYRPAPGKERELVAALNSGGSTNYADSVKGRFTISRDNAKNTVYLQMNSLKPEDPAVYYCAADNYSQGVPYDYWGQGTQVTVSS	low polyreactivity
QVQLVESGGGLVQAGGSLRLSCAASGSTFYNYVMGWYRQAPGKERELVAVINRSGTRTYYADSVKGRLTISRDNAKITVYLQMNSLKPEDTAVYYCNAELSYPGRYDSWGQGTQVTVSS	high polyreactivity
QVQLVESGGGLVQAGGSLRLSCAASGLIFIAYSMGWYRQAPGKEREFVAAITWNGVSTYYADSVKGRFTISRDNAKNTVYLQMNSLKPEDTAVYDCNADYDFSPWAYEYWGQGTQVTVSS	high polyreactivity
QVEIVESGGGLVQAGGSLRLSCAASGRTFSYYAMGWYRQAPGKERELVAAISTSGGSTYYAVSVKGRFTISRDYAKITVYLQMNSLKPEDTAVYVCAASPYLRFLYGGFGYWGQGTQVTVSS	high polyreactivity
QVQLVESGGGLVQAGGSLRLSCAASGFTFGTYAMGWYRQAPGKERELVAAITDGGGSTYYADSVKGRFSISRDNAKNTVYLQMNSLKPEDTAVYYCAAEFGYGWYTWLTGNDYWGQGTQVTVSS	low polyreactivity
QVQLVESGGGLVQAGGSLRLSCAASGNAMGWYRQAPGKERELVASINRSGGSTYYADSVKGRFTISRDNAKNTVYLQMNSLIPEDTAVYSCNTDVGATVEDDYWGQGTQVTVSS	low polyreactivity
QVQLVESGGGLVQAGGSLRLSCAASGYTFRYYAMGWYRQAPGKERELVARITGRAGSTYYADSVKGRFTISRDNAKNTVYLQMNSLKPEDTAVYYSAASIREGFYWGQGTQVTVSS	high polyreactivity
QVQLVESGGGLVQAGGSLRLSCAASGRTLYQYAMGWYRQAPGKERELVAAITWNGGSTYYADSVKGRFTISRDNAKNTVYLQMNSLKPEDTAVYYCAADTVRPWYAYKAHDYWGQGTQVTVSS	low polyreactivity
QVQLEESGGGLVQAGGSLRLSCAASGRTFVRYAMGWYRQATGNERELVAAFSLRGGRTYYADSVKGRFTISRDNAKNTVYLQMNSLKPEDTAVYYCNSRYYIQREYDYWGQGNQVTVSS	high polyreactivity
QVQLVESGGGLVQAGGSLRLSCAASGSIFLYNTMGWYRQAPGKERELVAAITYSGGSTYYADSVKGRFTISRDNAKNTVYLQMNSLKPEDTAVYYCAARRLPRKERKLYYWGQGTQVTVSS	high polyreactivity
QVQLVESGGGLVQAGGSLRLSCAASGRIFFNYAMGWYSQAPGKERELVAAIRGGGSTYADSVKGRFTISRDNAKNTVYLQLNSLKPADTAVYYCAARYSGSPYHTRRYYYWGQGTQVTVSS	high polyreactivity
